Ref: ChEMBL document CHEMBL5291721

Let's go through some recorded AC50 values for UniProtKB P41968 together.
Sequence (P41968 whole entry): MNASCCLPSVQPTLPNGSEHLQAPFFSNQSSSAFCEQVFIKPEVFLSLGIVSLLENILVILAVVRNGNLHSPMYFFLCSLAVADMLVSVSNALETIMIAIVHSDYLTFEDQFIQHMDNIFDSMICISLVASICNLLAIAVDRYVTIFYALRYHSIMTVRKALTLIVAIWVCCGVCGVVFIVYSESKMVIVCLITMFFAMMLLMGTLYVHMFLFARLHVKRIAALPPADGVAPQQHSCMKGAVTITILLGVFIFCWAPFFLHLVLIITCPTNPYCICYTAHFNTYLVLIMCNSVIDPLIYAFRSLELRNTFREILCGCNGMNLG

- COMPOUND: "C[C@](N)(Cc1ccc(O)c(O)c1)C(=O)O"
  TESTED_TARGET: "UniProtKB P41968"
  QUANTITY: "AC50"
  RESULT: "> 10 µM"
- COMPOUND: "C[C@H]1COc2c(C3(N)CC3)c(F)cc3c(=O)c(C(=O)O)cn1c23"
  TESTED_TARGET: "UniProtKB P41968"
  QUANTITY: "AC50"
  RESULT: "> 10 µM"

-- ask What value of AC50 on UniProtKB P41968 does CCN(CC)C(=O)N[C@H]1C[C@@H]2c3cccc4[nH]cc(c34)C[C@H]2N(C)C1 [TERGURIDE] have?
-- reply > 30 µM

-- ask What value of AC50 on UniProtKB P41968 does COc1ccc(CCNCC(O)COc2cccc(C)c2)cc1OC (configuration not stated) have?
-- reply > 10 µM

-- ask What value of AC50 on UniProtKB P41968 does "Cc1ccc(-n2nccn2)c(C(=O)N2CCN(c3nc4cc(Cl)ccc4o3)CC[C@H]2C)c1" have?
-- reply > 30 µM

-- ask What value of AC50 on UniProtKB P41968 does "CN1C(=O)OC(C)(C)C1=O" have?
-- reply > 10 µM

-- ask What value of AC50 on UniProtKB P41968 does "CN(C)CCc1c[nH]c2ccc(C[C@H]3COC(=O)N3)cc12" have?
-- reply > 30 µM
